System: M14 melanoma
Assay: NCI-60 one-dose screen, 48 h
Conditions: 10 µM unless noted
The panel holds about 83,000 compounds, 20% with a hit somewhere; the sample as a whole holds those more often. Calls of active or inactive are those of the source. How the source made its calls: active means growth percent below 10; inactive means the rest.
Entry note: the call must match one of true (1) (active), false (0) (inactive)

Call for entry CC(=O)Nc1ccc(S(=O)(=O)NC2CCCCC2)cc1 : false (0)

Which outcome did this test record for the molecule O=C(NCCN1CCOCC1)OCc1nc2nc(Cl)nc(N3CCOCC3)c2[nH]1 ? true (1)

For COc1ccc(Cn2nc(-c3ccccc3)c3c2CCc2cnoc2-3)cc1 , what call appears in the results of this test? false (0)

Hey, what did the test say about c1ccc(-c2nnc(Nc3ccc4c(c3)OCCO4)o2)c(NCc2ccncc2)c1 ? true (1)

Check the results log: what was the call for CC(C)(C)OC(=O)N1CCN(c2ccc(N)cc2)C(=O)C1 ? false (0)

Test call for this molecule, please: CCN(CC)CCCCCCNc1cc(OC)cc2cccnc12 true (1)

For Cc1ccc(C(c2c(O)c3cc(Br)ccc3[nH]c2=O)c2c(O)c3cc(Br)ccc3[nH]c2=O)cc1 , what call appears in the results of this test? false (0)

In this assay, the call recorded for CCOC(=O)N1CCN(CCCCl)CC1 was what? false (0)

Record lookup: outcome of this test for CNC(=O)NCC1OC(n2cnc3c(NC(=O)Nc4ccccc4)ncnc32)C(O[Si](C)(C)C(C)(C)C)C1O[Si](C)(C)C(C)(C)C (stereo unspecified) ? false (0)

Dear colleague, could you share the recorded outcome for NC(=S)N/N=C(\c1ccc(Cl)cc1)C1CC1 when you have a moment? false (0)

Identify the outcome logged in this assay for the molecule shown: FCc1nc2nc(Cl)c(Cl)nc2[nH]1 false (0)

----------
System: NCI-H23 lung
Assay: NCI-60 one-dose screen, 48 h (100 = growth as untreated, 0 = no growth, -100 = all killed)
Conditions: 10 µM unless noted
This is part of a sample that, as a whole, favours compounds with a hit. Of some 83,000 tested, about 20% had one in any assay.
Quantity measured: growth (%)
// units = %; emit number, no label

What value of growth has been recorded for this entry: COc1ccc(OC)c(/C=C/[C@H]2O[C@@H](C)[C@H](O)[C@@H]2O)c1 99.6

State the recorded growth for this entry: CC(=O)N1N=C(c2cccc(Nc3ccncc3)c2)CC1c1ccccc1 (stereo not given) 93.3

Consider the compound CCSc1ccc2c(c1)N(CCCN1CCN(C)CC1)c1ccccc1S2 and give its measured growth. 74.2

Given the compound FC(F)(F)c1cccc(Oc2ccc(Nc3ncnc4ccc(OCCCN5CCOCC5)cc34)cc2Cl)c1 , what is its reported growth? 76.1

Bench note: what growth did CCNNC(=O)[C@@H]1[C@H](c2cc(OC)c(OC)c(OC)c2)c2cc3c(cc2[C@H](O)[C@H]1CO)OCO3 show? 24

----------
Test system: U251 CNS
Experiment: NCI-60 one-dose screen, 48 h
Conditions: 10 µM unless noted
This is part of a sample that, as a whole, favours compounds with a hit. Of some 83,000 tested, about 20% had one in any assay. Active and inactive are the calls of the source. The calls were made as follows: active = growth percent below 10; inactive = the rest.
The reply should name one outcome from true (1) = active, false (0) = inactive

Hi, sorry to bother you, what did the test record for COc1ccc(C(=O)c2cc(C)c(OC)c(C)c2)c(OC)c1N(C(=O)C(Cl)Cl)C(=O)C(Cl)Cl ? false (0)

Outcome? CCCCCCCCCCCCCCCCCCOc1ccccc1N false (0)

Which outcome did this test record for the compound CC[N+](CC)(CCCC(C)[N+]1(Cc2ccccc2)C(C)=CC=C1C)Cc1ccccc1 (stereo unspecified) ? false (0)

How was COc1cc(NCCN(CC(C)C)C2CCCC2)c2ncccc2c1 classified in this test? false (0)

Returns: the outcome recorded for Cc1cc2nc(-c3ccccc3)c(-c3ccccc3)nc2cc1C in this assay. false (0)

GET /call?item= COc1cc(NCCCN(CC(C)C)C2CCCC2)c2ncccc2c1 returns the recorded outcome of this test. false (0)

Check the results log: what was the call for O=C(O)CCCCCCCCCCCCCCC(=O)O ? false (0)

Look up the recorded call for COc1ccc(-c2nc(N=Nc3c(O)[nH]c4ccccc34)nc(N3CCOCC3)c2C#N)cc1 in this test. false (0)

Recorded call for O=C1Nc2c(ccc(Cl)c2Cl)/C1=C/c1ccccn1 ? false (0)

Record lookup: outcome of this test for N#C/C(=C\c1ccc(Br)cc1)n1nnc2cccc(F)c21 ? false (0)

// return assay outcome for O=C(Nc1ccc2ncnc(Nc3ccc(Oc4cccc(F)c4)c(Cl)c3)c2c1)c1ccc(CN2CCOCC2)cc1 false (0)

Could you please tell me the result logged for COc1ccccc1/C=N/NC1=NC2C(N1)N(C)C(=O)N2C (stereo unspecified) in this assay? false (0)

Dear all, I need the recorded test outcome for COc1ccc2c(Nc3ccc(NS(C)(=O)=O)cc3)c3ccccc3nc2c1 , thank you. true (1)

Hello, I am checking results. What call was entered for CC1(C)[C@H](O)CC[C@]2(C)[C@@H]1CC[C@@]13C[C@@H](CC[C@H]12)[C@@](O)(CO)C3 ? false (0)

Lab log entry: O=CNc1cc(Cl)cc(Cl)c1 — outcome as called in the assay? false (0)

Short answer needed: outcome of this test for Cc1ccccc1-c1cc(Cc2ccc(F)cc2)c(=O)[nH]n1 ? false (0)

Give the logged outcome of this assay for the following compound: CCOC(=O)c1c(C)nc2c(c1N)C(=O)C(=O)N2Cc1ccc(C(F)(F)F)cc1 false (0)

What did this assay record as the result for O=c1[nH]c(=O)[nH]c(=S)[nH]1 ? false (0)

How was c1ccc2c(-c3c4ccsc4cc4[nH]c5ccccc5c34)c[nH]c2c1 classified in this test? false (0)

// return assay outcome for CCCCCCCCCCCCCCCC(=O)OC[C@@]1(O)C[C@@]23CC[C@@H]4C(C)(C)[C@H](O)CC[C@@]4(C)[C@@H]2CC[C@H]1C3 false (0)

I would be grateful if you could indicate the recorded call for COc1cc(C2CC(c3cccc(Nc4ccncc4)c3)=NN2c2cc(Cl)cc(Cl)c2)cc(OC)c1OC (stereo unspecified) . true (1)
